assay target: CYP3A4 (Homo sapiens, UniProt P08684)
Sequence (P08684 whole entry): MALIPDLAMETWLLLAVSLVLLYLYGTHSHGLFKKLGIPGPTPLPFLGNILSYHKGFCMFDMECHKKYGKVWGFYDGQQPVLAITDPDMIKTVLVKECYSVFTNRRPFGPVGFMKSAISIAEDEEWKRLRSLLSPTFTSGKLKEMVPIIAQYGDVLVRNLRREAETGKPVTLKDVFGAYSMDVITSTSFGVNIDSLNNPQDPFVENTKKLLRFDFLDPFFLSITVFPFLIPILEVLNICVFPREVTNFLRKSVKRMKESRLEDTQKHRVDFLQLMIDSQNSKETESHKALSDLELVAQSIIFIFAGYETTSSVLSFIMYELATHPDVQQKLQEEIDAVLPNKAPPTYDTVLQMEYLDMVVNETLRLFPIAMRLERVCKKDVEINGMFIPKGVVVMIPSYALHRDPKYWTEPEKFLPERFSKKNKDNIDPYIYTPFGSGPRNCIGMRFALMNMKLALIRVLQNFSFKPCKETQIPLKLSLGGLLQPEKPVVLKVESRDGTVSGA
assay: in vitro
reported conditions: both, pooled human liver microsomes, pH 7.4, probe metaxalone 0.75 μM (disappearance)
recorded endpoint: inhibition at 60 min

Input: Look up and state reported inhibition at 60 min for CC(=O)N1CCN(c2ccc(OCC3COC(Cn4ccnc4)(c4ccc(Cl)cc4Cl)O3)cc2)CC1 (stereo not shown)
Output: 126%

----------
assay target: CYP2E1 (Homo sapiens)
Sequence (P05181 whole entry): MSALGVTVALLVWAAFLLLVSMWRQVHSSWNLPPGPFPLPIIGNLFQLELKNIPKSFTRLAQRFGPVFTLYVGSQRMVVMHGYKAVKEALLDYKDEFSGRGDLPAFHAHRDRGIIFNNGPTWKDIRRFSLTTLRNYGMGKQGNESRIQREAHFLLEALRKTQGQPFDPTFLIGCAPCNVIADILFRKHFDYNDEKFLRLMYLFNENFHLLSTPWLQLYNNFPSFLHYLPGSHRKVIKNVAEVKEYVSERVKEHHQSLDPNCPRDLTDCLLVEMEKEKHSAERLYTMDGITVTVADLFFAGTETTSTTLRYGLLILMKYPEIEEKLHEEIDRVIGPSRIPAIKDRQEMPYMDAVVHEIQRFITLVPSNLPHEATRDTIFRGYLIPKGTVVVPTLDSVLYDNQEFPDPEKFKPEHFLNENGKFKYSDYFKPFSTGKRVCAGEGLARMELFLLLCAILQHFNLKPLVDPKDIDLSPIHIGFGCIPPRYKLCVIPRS
assay: Inhibition of CYP2E1 activity in pooled human liver microsomes (chlorzoxazone 50 μM to 6-hydroxy chlorzoxazone)
Assay type: in vitro ADME
Set-up: host or cells: cryopreserved primary human hepatocytes from three donors
reported conditions: human, pooled human liver microsomes, probe chlorzoxazone 50 μM (to 6-hydroxy chlorzoxazone)
recorded endpoint: inhibition at 30 min, 100 μM (%)
Give just the number in %; leave the unit off.

Input: Return reported inhibition at 30 min, 100 μM. Input molecule: Cc1cc(C)cc(OCC2CNC(=O)O2)c1 (stereo not shown) [metaxalone]
Output: 12.8
